B1: scFv; the commonest letter at each place (parent)
chain 1: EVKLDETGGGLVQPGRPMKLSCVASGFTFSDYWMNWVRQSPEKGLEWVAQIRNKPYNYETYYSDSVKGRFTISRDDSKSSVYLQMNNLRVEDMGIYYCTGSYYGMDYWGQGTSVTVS
chain 2: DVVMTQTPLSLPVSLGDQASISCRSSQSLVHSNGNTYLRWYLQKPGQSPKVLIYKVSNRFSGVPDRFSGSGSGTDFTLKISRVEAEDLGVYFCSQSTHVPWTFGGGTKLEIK

# Variants of: B1
# METHOD DESCRIPTION: Kd (Tite-Seq)
# EXPERIMENTAL CONDITIONS: with fluorescein; format: scFv 4-4-20, heavy + light
# Kd per entry
ASSAY ENDPOINT: Kd

1) chain 1 N35F V37D	≥ 10 µM
2) chain 1 T28L	0.00166 µM
3) chain 1 S101T Y103E G104K	≥ 10 µM
4) chain 1 N35F	≥ 10 µM
5) chain 1 M34C W36L	≥ 10 µM
6) chain 1 S101C Y107C	≥ 10 µM
7) chain 1 F29A V37P	≥ 10 µM
8) chain 1 G100T M105W	≥ 10 µM
9) chain 1 W33R V37W	≥ 10 µM
10) chain 1 G104L	≥ 10 µM
11) chain 1 N35V V37Y	≥ 10 µM
12) chain 1 Y103G Y107W	0.0221 µM
13) chain 1 W33R V37D	0.205 µM
14) chain 1 T28W F29M	0.0139 µM
15) chain 1 G100V S101N	≥ 10 µM
16) chain 1 M105V	4.25 µM
17) chain 1 S101F	≥ 10 µM
18) chain 1 Y103W G104P	≥ 10 µM
19) chain 1 Y32R W36Y	7.72 µM
20) chain 1 T28R Y32H	0.0259 µM
21) chain 1 Y103A	0.015 µM
22) chain 1 Y102R G109L	≥ 10 µM
23) chain 1 M34T	0.00293 µM
24) chain 1 Y102D D106T	≥ 10 µM
25) chain 1 W36S V37D	≥ 10 µM
26) chain 1 G104V M105R G109W	≥ 10 µM
27) chain 1 T28C D31S	0.00638 µM
28) chain 1 S30R D31R	0.00827 µM
29) chain 1 T28F S30T	0.00468 µM
30) chain 1 W33H V37F	≥ 10 µM
31) chain 1 M105F W108Y	0.0113 µM
32) chain 1 Y103N G104T Y107K	≥ 10 µM
33) chain 1 W33T	≥ 10 µM
34) chain 1 Y102M Y103E	≥ 10 µM
35) chain 1 G100D	≥ 10 µM
36) chain 1 D31P V37W	≥ 10 µM
37) chain 1 Y107D W108Q	≥ 10 µM
38) chain 1 S30G M34I	0.00239 µM
39) chain 1 F29V D31E	1.47 µM
40) chain 1 Y103L G109M	≥ 10 µM
41) chain 1 Y102K	0.021 µM
42) chain 1 S101K Y107V	≥ 10 µM
43) chain 1 S101V M105N	≥ 10 µM
44) chain 1 G100K G104C	4.6 µM
45) chain 1 Y32H N35E	≥ 10 µM
46) chain 1 G104L W108C	≥ 10 µM
